Catalogue of molecules with associated Crabgrass plant response rating
System: crabgrass
Test: Test B pre/postemergence crabgrass
Assay type: in vivo, Digitaria sanguinalis
Settings: Preemergence, Rate 250 g/ha; scale of 0 to 10 where 0 is no effect and 10 is complete control
# print the numeric value only

Request: Name the recorded Crabgrass plant response rating of COCC(C)n1c(=O)on(C(=O)N(c2ccc(F)cc2F)C(C)C)c1=O (stereo not drawn) , assay system crabgrass.
Response: 10

Request: Give Crabgrass plant response rating; test system crabgrass; molecule Cc1cc(C)c(-n2c(=O)on(C(=O)N(c3ccc(F)cc3)C(C)C)c2=O)c(Br)c1
Response: 9

Request: State the measured Crabgrass plant response rating (crabgrass) of CCC(C)N(C(=O)n1oc(=O)n(-c2ccccc2C)c1=O)c1ccc(F)cc1 (stereo not drawn)
Response: 10

---

System: surinam grass
Assay: Test B pre/postemergence surinam grass
Type: in vivo, Brachiaria decumbens
Details: Preemergence, Rate 500 g/ha; scale 0 to 10 (0 no effect, 10 complete control)
Procedure: […] At the same time, these crop and weed species were also treated with postemergence applications of test chemicals formulated in the same manner. […] Treated plants and controls were maintained in a greenhouse for twelve to sixteen days, after which all species were compared to controls and visually evaluated. […]
The threshold is inclusive: B. signalgrass plant response rating of exactly 5 counts as Yes; values below receive No.

Solved entries (count: 3):
INSERT INTO measurements (compound, tgt, qualitative_label) VALUES
  ('Cc1ccccc1-n1c(=O)on(C(=O)N(c2ccc(-c3ccccc3)cc2)C(C)C)c1=O', 'surinam grass', 'No'),
  ('CC(C)N(C(=O)n1oc(=O)n(C(C)c2ccccc2)c1=O)c1ccc(F)cc1 (stereo not drawn)', 'surinam grass', 'Yes'),
  ('CCn1c(=O)on(C(=O)N(c2ccc(F)cc2F)C(C)C)c1=O', 'surinam grass', 'Yes');

Request: Is the recorded value of B. signalgrass plant response rating equal to or greater than 5 for this compound? CCOC(=O)Cn1c(=O)on(C(=O)N(c2ccc(F)cc2)C(C)C)c1=O
Response: No

Request: // inclusive: B. signalgrass plant response rating at least 5? input: CC(C)N(C(=O)n1oc(=O)n([C@H](C)c2ccccc2)c1=O)c1ccc(Cl)cc1
Response: Yes

---

Tested on: wheat
Test: Test B pre/postemergence wheat
Type: in vivo, Triticum aestivum
Details: Rate 500 g/ha, Postemergence; scale 0 to 10, 0 no effect, 10 complete control
Measured Wheat plant response rating accompanies every entry in the list below.

Examples with answers:
INSERT INTO measurements (compound, experimental_endpoint, observed_value) VALUES
  ('COCCOCn1c(=O)on(C(=O)N(c2ccc(F)cc2)C(C)C)c1=O [Compound 220]', 'Wheat plant response rating', 6),
  ('Cc1ccccc1-n1c(=O)on(C(=O)N(c2cc(F)ccc2F)C(C)C)c1=O [Compound 68]', 'Wheat plant response rating', 0),
  ('COc1ccc(N(C(=O)n2oc(=O)n(-c3ccccc3C)c2=O)C(C)C)cc1 [Compound 49]', 'Wheat plant response rating', 0);

Request: Find the measured Wheat plant response rating of CC(C)N(C(=O)n1oc(=O)n(C2CC2)c1=O)c1ccccc1 [Compound 243] with wheat as test system.
Response: 8

Request: Answer with Wheat plant response rating of Cc1cc(C)c(-n2c(=O)on(C(=O)N(c3ccc(F)cc3)C(C)C)c2=O)c(Br)c1 [Compound 224] measured for wheat.
Response: 0

Request: For wheat, give Wheat plant response rating of the listed compound: CCC(C)N(C(=O)n1oc(=O)n(-c2ccccc2C)c1=O)c1ccc(F)cc1 (stereo not drawn) [Compound 239]
Response: 0
